cell viability reference
Tested on: KG-1
Assay: cell viability (% survival relative to DMSO control, bortezomib = 0%); higher = less cytotoxic
Conditions: 1000 nM; 72 h
Reply with the number and its unit after it.

{"columns": ["MOLECULE", "cell viability"],
 "data": [
  ["CCOC(=O)[C@@]1(CCCCCCOc2ccc(Cl)cc2)CO1", "94.5%"]
]}

Q: # lookup: cell viability of CC(/C=C1\SC(=S)N(CC(=O)O)C1=O)=C\c1ccccc1
Ans: 104%

Q: # lookup: cell viability of CC(Cc1ccc(O)c(O)c1)C(C)Cc1ccc(O)c(O)c1 (centres undefined)
Ans: 94.8%

Q: # lookup: cell viability of O=C(COc1ccc(C(=O)c2ccccc2)cc1)NC1CCN(Cc2ccccc2)CC1
Ans: 91.9%

Q: # lookup: cell viability of O=C(O)c1cc2sccc2[nH]1 [4H-thieno[3,2-b]pyrrole-5-carboxylic acid]
Ans: 91.8%

Q: # lookup: cell viability of CCOc1ccc(Cc2cc([C@@H]3O[C@H](CO)[C@@H](O)[C@H](O)[C@H]3O)ccc2Cl)cc1
Ans: 101%

Q: # lookup: cell viability of CN(C/C=C/C#CC(C)(C)C)Cc1cccc2ccccc12
Ans: 95.5%

Q: # lookup: cell viability of N[C@](CCCCB(O)O)(CCN1CCCCC1)C(=O)O
Ans: 100%

Q: # lookup: cell viability of Oc1cc(Cl)ccc1Oc1ccc(Cl)cc1Cl
Ans: 109%

* * *

System: HL-60
Experiment: cell viability (% survival relative to DMSO control); higher = less cytotoxic
Settings: 0.001 µM; 72 h; co-treatment: pictilisib 100 nM
READOUT: cell viability (%)
Provide only the numeric value, understood in %.

Below, 5 compounds whose answers are already recorded.
{"columns": ["COMPOUND", "cell viability, %"],
 "data": [
  ["CC(C(=O)O)C(=O)O [methylmalonate]", 105],
  ["CCOC(=O)N1c2ccc(C(F)(F)F)cc2[C@@H](N(Cc2cc(C(F)(F)F)cc(C(F)(F)F)c2)C(=O)OC)C[C@H]1CC [Torcetrapib]", 113],
  ["O=C(COc1ccc(C(=O)c2ccccc2)cc1)NC1CCN(Cc2ccccc2)CC1 [AdipoRon]", 97.7],
  ["O=C(O)c1nn(Cc2ccc(Cl)cc2Cl)c2ccccc12 [Lonidamine]", 101],
  ["C[C@]12CC[C@H](O)CC1=CC[C@@H]1[C@@H]2CC[C@]2(C)C(c3cccnc3)=CC[C@@H]12 [Abiraterone]", 104]
]}

Q: Which cell viability is reported with HL-60 for this entry: CC(C)Cc1sc(N)nc1-c1ccc(P(=O)(O)O)o1 ?
Ans: 97.8

Q: Which cell viability is reported with HL-60 for this entry: C[C@]12O[C@H](C[C@]1(O)CO)n1c3ccccc3c3c4c(c5c6ccccc6n2c5c31)CNC4=O [Lestaurtinib] ?
Ans: 102

Q: Which cell viability is reported with HL-60 for this entry: CCOC(=O)[C@@]1(CCCCCCOc2ccc(Cl)cc2)CO1 [Etomoxir] ?
Ans: 100

Q: Which cell viability is reported with HL-60 for this entry: Oc1cc(Cl)ccc1Oc1ccc(Cl)cc1Cl [Triclosan] ?
Ans: 93.3

* * *

Tested on: SHI-1
Experiment: cell viability (% survival relative to DMSO control, bortezomib = 0%); higher = less cytotoxic
Conditions: 10 nM; 72 h
READOUT: cell viability (%)
Provide only the numeric value, understood in %.

Below, 2 molecules whose answers are already recorded.
{"columns": ["MOLECULE", "READOUT_UNIT", "cell viability"],
 "data": [
  ["[N-]=[N+]=CC(=O)CC[C@H](N)C(=O)O", "%", 101],
  ["CCOC(=O)[C@@]1(CCCCCCOc2ccc(Cl)cc2)CO1", "%", 108]
]}

Q: # lookup: cell viability of CC12CCC(O)CC1CCC1C2CCC2(C)C(C3=CC(=O)OC3)CCC12O (stereo not given)
Ans: 108

Q: # lookup: cell viability of N[C@](CCCCB(O)O)(CCN1CCCCC1)C(=O)O
Ans: 105

Q: # lookup: cell viability of CC(C)C[C@H](NC(=O)[C@@H](O)[C@H](N)Cc1ccccc1)C(=O)O
Ans: 104

* * *

Test system: myeloid leukemia patient primary cells Pat.2
Test: cell viability (% survival relative to DMSO control); higher = less cytotoxic
Settings: 10 nM; 72 h
cell viability reference
Provide only the numeric value, understood in %.

Below, 2 compounds whose answers are already recorded.
{"columns": ["COMPOUND", "READOUT_UNIT", "cell viability"],
 "data": [
  ["C[C@]12O[C@H](C[C@]1(O)CO)n1c3ccccc3c3c4c(c5c6ccccc6n2c5c31)CNC4=O", "%", 79],
  ["C[C@H]1O[C@@H](O[C@H]2[C@@H](O)C[C@H](O[C@H]3[C@@H](O)C[C@H](O[C@H]4CC[C@@]5(C)[C@H](CC[C@@H]6[C@@H]5C[C@@H](O)[C@]5(C)[C@@H](C7=CC(=O)OC7)CC[C@]65O)C4)O[C@@H]3C)O[C@@H]2C)C[C@H](O)[C@@H]1O", "%", 96.8]
]}

Lab note: next compound to report on.
Q: # lookup: cell viability of CC(Cc1ccc(O)c(O)c1)C(C)Cc1ccc(O)c(O)c1 (centres undefined)
Ans: 89.8

* * *

Test system: HL-60
Test: cell viability (% survival relative to DMSO control); higher = less cytotoxic
Conditions: 0.1 µM; 72 h; co-treatment: AZD3965 100 nM
cell viability reference
Provide only the numeric value, understood in %.

{"columns": ["COMPOUND", "READOUT_UNIT", "cell viability"],
 "data": [
  ["Sc1ncnc2nc[nH]c12", "%", 96.3],
  ["O=C(O)CC[C@H](NC(=O)c1ccc([N+](=O)[O-])cc1)C(=O)O [(S)-2-(4-Nitrobenzamido)pentanedioic acid]", "%", 102]
]}

Lab note: next compound to report on.
Q: Which cell viability is reported with HL-60 for this entry: O=C(Nc1ccccc1)c1cc([N+](=O)[O-])ccc1Cl ?
Ans: 102

* * *

Tested on: HL-60
Assay: cell viability (% survival relative to DMSO control); higher = less cytotoxic
Conditions: 0.1 µM; 72 h; co-treatment: DMSO vehicle
READOUT: cell viability (%)
Provide only the numeric value, understood in %.

{"columns": ["MOLECULE", "READOUT_UNIT", "NUMBER"],
 "data": [
  ["C[C@H]1O[C@@H](O[C@H]2[C@@H](O)C[C@H](O[C@H]3[C@@H](O)C[C@H](O[C@H]4CC[C@@]5(C)[C@H](CC[C@@H]6[C@@H]5C[C@@H](O)[C@]5(C)[C@@H](C7=CC(=O)OC7)CC[C@]65O)C4)O[C@@H]3C)O[C@@H]2C)C[C@H](O)[C@@H]1O", "%", 59.4],
  ["c1ccc2c(c1)OCC(=C1NCCN1)O2", "%", 101],
  ["Clc1ccc2c(c1Cl)CNCC2", "%", 103]
]}

Q: # lookup: cell viability of O=C(O)CCc1ccc(NCc2cccc(Oc3ccccc3)c2)cc1
Ans: 101

Q: # lookup: cell viability of CCCc1nn(C)c2c(O)nc(-c3cc(S(=O)(=O)N4CCN(C)CC4)ccc3OCC)nc12
Ans: 106

Q: # lookup: cell viability of CCOC(=O)[C@@]1(CCCCCCOc2ccc(Cl)cc2)CO1
Ans: 102

Q: # lookup: cell viability of CC(Cc1ccc(O)c(O)c1)C(C)Cc1ccc(O)c(O)c1 (stereo not drawn)
Ans: 96.3

Q: # lookup: cell viability of O=C(Nc1ccccc1)c1cc([N+](=O)[O-])ccc1Cl
Ans: 100

* * *

Tested on: HL-60
Test: cell viability (% survival relative to DMSO control, bortezomib = 0%); higher = less cytotoxic
Details: 100 nM; 72 h
READOUT: cell viability (%)
Provide only the numeric value, understood in %.

{"columns": ["COMPOUND", "cell viability (%)"],
 "data": [
  ["C=CCc1ccc2c(c1O)C(=O)c1ccccc1C2=O [R162]", 95.6],
  ["CC(/C=C1\\SC(=S)N(CC(=O)O)C1=O)=C\\c1ccccc1 [Epalrestat]", 109]
]}

Q: # lookup: cell viability of Clc1ccc(COC(Cn2ccnc2)c2ccc(Cl)cc2Cl)cc1 (configuration not stated) [Econazole]
Ans: 109

Q: # lookup: cell viability of C[C@]12CC[C@H](O)CC1=CC[C@@H]1[C@@H]2CC[C@]2(C)C(c3cccnc3)=CC[C@@H]12 [Abiraterone]
Ans: 136

* * *

cell viability reference
System: ML-2
Experiment: cell viability (% survival relative to DMSO control, bortezomib = 0%); higher = less cytotoxic
Conditions: 100 nM; 72 h
Provide only the numeric value, understood in %.

Below, 4 compounds whose answers are already recorded.
{"columns": ["COMPOUND", "READOUT", "NUMBER"],
 "data": [
  ["CC(C)Cc1sc(N)nc1-c1ccc(P(=O)(O)O)o1", "cell viability", 105],
  ["OCCN1CCN(CCCN2c3ccccc3Sc3ccc(Cl)cc32)CC1 [Perphenazine]", "cell viability", 96.6],
  ["CN(C/C=C/C#CC(C)(C)C)Cc1cccc2ccccc12 [Terbinafine]", "cell viability", 92.2],
  ["C1CCC(C(CC2CCCCN2)C2CCCCC2)CC1.O=C(O)/C=C\\C(=O)O (stereo not given) [Perhexiline]", "cell viability", 89.7]
]}

Lab note: next compound to report on.
Q: # lookup: cell viability of NC(=O)c1ncn([C@@H]2O[C@H](CO)[C@@H](O)[C@H]2O)n1 [Ribavirin]
Ans: 97.7
